binders and their reported pKd
# testedOn: Inadl_3, Q8NI35
# Sequence (Q8NI35 359-469): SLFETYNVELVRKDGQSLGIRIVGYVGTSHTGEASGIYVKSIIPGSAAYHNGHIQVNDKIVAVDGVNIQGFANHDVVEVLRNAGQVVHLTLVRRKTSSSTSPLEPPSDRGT
# methodNotes: holdup assay
# Set-up: key: below the threshold = too weak to quantify, mostly under pKd 3.1 to 4
# appliedConditions: plain residues with an end cap or a label only (N-terminal biotin on a linker: ado-ado)

# binder, pKd
measured = [
    ("VLYPREGTEV [FOXI1, Q12951]", 3.72),
    ("SPDRDRESIV [SCN5A, Q14524]", 3.56),
    ("NIAESLESLV [PTPRZ1, P23471]", 4.13),
    ("TNSRHGETTV [FZD2, Q14332]", 3.51),
]

Source listed as paper PMC9482650.
